Origin of the recorded values: PubChem BioAssay (NCI)

This listing pairs compounds with measured TGI.
System: MDA-MB-435
Assay Procedure: NCI tumour cell line growth inhibition, 48 h
Assay Readout: TGI

>>> result("CCN1CCC(O)(C(C(=O)O)c2ccccc2)CC1 (stereo unspecified)")
"> 100 µM"
>>> result("COc1ccc(/C=C/c2nccc3ccccc23)cc1OC")
"> 10 µM"
>>> result("COc1ccc2cc(NC(=O)N/N=C\\c3ccc(Cl)cc3)ccc2c1")
"> 100 µM"
>>> result("CCC(C(=O)c1ccc(OC)c(OC)c1)N(C(=O)C(F)(F)F)C(C)c1ccccc1 (stereo unspecified)")
"> 100 µM"
>>> result("O=C(Cc1ccc([N+](=O)[O-])cc1)OCC#CCOC(=O)Cc1ccc([N+](=O)[O-])cc1")
"> 10 µM"
>>> result("COc1cc([N+](=O)[O-])cc2c3c(n(C)c12)[C@@]1(C)CCC2c4ccc(OCc5ccccc5)cc4CCC2C1C3 (stereo partly specified)")
"> 100 µM"
>>> result("Cc1cc2ncc3c(=O)n(NS(=O)(=O)c4ccc(N)cc4)ccc3n2n1")
"> 100 µM"
>>> result("CC(=S)N=Cc1c(O)cc(C)oc1=O")
"> 100 µM"
>>> result("NC(=O)c1ccc(I)c(N)c1")
"> 100 µM"
>>> result("CCC(C)C(=O)OC1CC2(C)C(c3ccoc3)OC(=O)CC23OC2(C)OC34C(OC(=O)C(C)C)C3(O)C(OC(=O)C5(C)OC5C)C5(C)CC3(O)C(C)(C5CC(=O)OC)C14O2 (stereo unspecified)")
"> 100 µM"
>>> result("Cc1nc(C)c(Cc2ccccc2)o1")
"> 100 µM"

---

Overview of recorded TGI for various compounds
Test system: BT-549 breast
Assay Procedure: NCI tumour cell line growth inhibition, 48 h
Assay Readout: TGI

>>> result("CSc1nc2c(c(=O)n1C)N=C(c1ccccc1)[C@H](C(CC(=O)c1ccccc1)c1ccccc1)C(c1ccccc1)N2 (stereo partly drawn)")
"> 100 µM"
>>> result("COc1ccc(-c2cc(=O)c3c(OC)c(OC)c(OC)cc3o2)cc1")
"> 100 µM"
>>> result("O=C(Cc1ccc([N+](=O)[O-])cc1)OCC#CCOC(=O)Cc1ccc([N+](=O)[O-])cc1")
"> 10 µM"

---

Tested on: T-47D breast
Assay Procedure: NCI tumour cell line growth inhibition, 48 h
Recorded TGI values for a group of compounds are listed next.
Assay Readout: TGI

>>> result("O=c1c(-c2ccc(Cl)cc2)nnc2n(Cc3ccccc3)c3ccccc3n12")
"> 100 µM"
>>> result("CNC(=O)N(CCC#N)[C@H]1CCCC[C@@H]1N(C(=O)NC)c1ccccc1")
"> 100 µM"
>>> result("COC(=O)c1ccc(C=Nc2ccc(S(N)(=O)=O)cc2)cc1")
"> 100 µM"
>>> result("O=C(Cc1ccc([N+](=O)[O-])cc1)OCC#CCOC(=O)Cc1ccc([N+](=O)[O-])cc1")
"> 10 µM"
>>> result("CCOC(=O)C(CC#Cc1ccc(C#CCC(NC(C)=O)C(=O)OCC)cc1)NC(C)=O (stereo not given)")
"> 100 µM"

---

System: SK-MEL-2 melanoma
Assay Procedure: NCI tumour cell line growth inhibition, 48 h
Below, each entry is listed with its recorded TGI.
Assay Readout: TGI

>>> result("CC(C)(CC(=O)Nc1ccccc1)C(=O)O")
"> 100 µM"
>>> result("Cc1cn(C(C)OCCN2C(=O)c3ccccc3C2=O)c(=O)[nH]c1=O (stereo not drawn)")
"> 100 µM"
>>> result("COc1ccc(/C=C/CN(C)CCc2ccccc2)cc1OC")
"> 100 µM"

---

Tested on: COLO 205 colon
Assay Procedure: NCI tumour cell line growth inhibition, 48 h
Assay Readout: TGI

>>> result("COc1c(C)c2nc3ccccc3[nH]c2c2c(=O)ccnc12")
"> 100 µM"
>>> result("COC(=O)Cc1c([C@H]2[C@H](CC(=O)OC)c3ccccc3N2C(C)=O)[nH]c2ccccc12")
"> 100 µM"
>>> result("O=c1c2ccccc2nc(Nc2cccc(Cl)c2)n1/N=C/C=C/c1ccccc1")
"> 100 µM"
>>> result("Cc1cc2[nH]c3c(C#N)c4c(c(=O)n3c2cc1C)CCCC4")
"> 100 µM"
>>> result("NC(=O)C(=CNC(=S)c1ccncc1)C(N)=O")
"> 100 µM"
>>> result("CC(=O)OCCN1c2ccccc2Sc2cnccc21")
"> 10 µM"
>>> result("CCOC(=O)/C(C#N)=N\\Nc1ccc(-n2c(C)nc3ccccc3c2=O)cc1")
"> 100 µM"
>>> result("O=C(Cc1ccccc1)NN1C(=O)/C(=C\\c2ccc([N+](=O)[O-])cc2)SC1=Nc1ccccc1")
"> 100 µM"
>>> result("CCOC(=O)C1=C(OC(OCC)C(CC)[Se]c2ccccc2)CCCC1 (configuration not stated)")
"> 100 µM"
>>> result("Cc1nc(C)c(Cc2ccccc2)o1")
"> 100 µM"
>>> result("O=C(/N=N/C(=O)OCc1ccccc1)OCc1ccccc1")
"> 100 µM"
>>> result("[Cl-].[Dy+3].[O-]/N=C(\\c1ccccc1)c1ccccn1.[O-]/N=C(\\c1ccccc1)c1ccccn1.[O-]/N=C(\\c1ccccc1)c1ccccn1")
"> 100 µM"

---

Test system: SF-295 CNS
Assay Procedure: NCI tumour cell line growth inhibition, 48 h
Catalogue of TGI readings, one per entry.
Assay Readout: TGI

>>> result("O=[N+]([O-])c1ccc(-c2ccc(-c3csc(Nc4ccccn4)n3)o2)cc1")
"> 100 µM"
>>> result("COc1c(Br)cc(CC(N)=O)c(O)c1Br")
"> 100 µM"
>>> result("COc1c(C)c2nc3ccccc3[nH]c2c2c(=O)ccnc12")
"> 100 µM"
>>> result("COc1ccc(/C=C/c2nccc3ccccc23)cc1OC")
"> 10 µM"

---

System: NCI-H522 lung
Assay Procedure: NCI tumour cell line growth inhibition, 48 h
// reported TGI per item
Assay Readout: TGI

>>> result("COc1cc([N+](=O)[O-])cc2c3c(n(C)c12)[C@@]1(C)CCC2c4ccc(OCc5ccccc5)cc4CCC2C1C3 (some centres not stated)")
"> 100 µM"
>>> result("NC(=O)C(=CNC(=S)c1ccncc1)C(N)=O")
"> 100 µM"
>>> result("CNC(=O)N(CCC#N)[C@H]1CCCC[C@@H]1N(C(=O)NC)c1ccccc1")
"> 100 µM"
>>> result("O=C(CC1=NCCN1)c1ccccc1")
"> 750 µM"
>>> result("Cc1cc2ncc3c(=O)n(NS(=O)(=O)c4ccc(N)cc4)ccc3n2n1")
"> 100 µM"
>>> result("CC(=O)OCCN1c2ccccc2Sc2cnccc21")
"> 10 µM"
>>> result("Cn1c2ccccc2c2c(-c3ccccc3)[n+]3ccncc3nc21")
"> 100 µM"
>>> result("C/C(CC(=O)Nc1cc(Cl)c(Cl)cc1Cl)=N\\NC(N)=O")
"> 100 µM"
>>> result("O=C(Cc1ccc([N+](=O)[O-])cc1)OCC#CCOC(=O)Cc1ccc([N+](=O)[O-])cc1")
"> 10 µM"
>>> result("O=c1c(-c2ccc(Cl)cc2)nnc2n(Cc3ccccc3)c3ccccc3n12")
"> 100 µM"
>>> result("O=C1CCC(=O)N2CCCCN12")
"> 100 µM"
>>> result("O=C(c1ccccc1)c1nnc(C(=O)c2ccccc2)nn1")
"> 344 µM"
>>> result("CCOc1cc(-c2nc3ccccn3c2/N=C/c2cc(Br)ccc2O)ccc1O")
"> 100 µM"
>>> result("COC(=O)CN1CCSC1=NC#N")
"> 100 µM"
>>> result("O=c1c2cc([N+](=O)[O-])ccc2sc2ccsc12")
"> 100 µM"
>>> result("Cc1cn([C@@H]2C[C@H]2CO)c(=O)[nH]c1=O")
"> 100 µM"
>>> result("O=[N+]([O-])c1ccc(-c2ccc(-c3csc(Nc4ccccn4)n3)o2)cc1")
"> 100 µM"

---

Tested on: ACHN renal
Assay Procedure: NCI tumour cell line growth inhibition, 48 h
In this section, each of the compounds is paired with its reported TGI.
Assay Readout: TGI (µM)

>>> quantitative_readout("N#Cc1ccc(O)c(C2=NCC(c3cccc(Oc4ccccc4)c3)O2)c1 (stereo not given)")
14.3
>>> quantitative_readout("C=C1C(=O)O[C@@]23C1CC[C@@H](C)C2CC[C@@]1(C)OC31 (stereo not given in full)")
27.1

---

Tested on: U251 CNS
Outcome codes: active, inactive

>>> class_name("CC/C(=C(/c1ccc(O)cc1)c1ccc(OCCNC)cc1)c1ccccc1")
"inactive"
>>> class_name("CCOc1cc2c(Cl)ncnc2c(OCC)c1OCC")
"inactive"
>>> class_name("CC(C)(C)OC(=O)N1CCc2c(sc3ncnc(N/N=C/c4cccc5ccccc45)c23)C1")
"inactive"
>>> class_name("Oc1ccc2ccccc2c1N=Nc1nccs1")
"active"
>>> class_name("O=C1c2cc(Cl)ccc2S(=O)(=O)c2c(NCCCNCCO)nc3ccccc3c21")
"inactive"
>>> class_name("CC(C)c1nc(CN(C)C(=O)N[C@H](C(=O)N[C@@H](Cc2ccccc2)C[C@H](O)[C@H](Cc2ccccc2)NC(=O)OCc2cncs2)C(C)C)cs1")
"inactive"
>>> class_name("O=c1[nH]ncc(Br)c1Br")
"inactive"
